# subject-of-test: T1, human Ang-2 (human, UniProt O15123)
# T1 chain: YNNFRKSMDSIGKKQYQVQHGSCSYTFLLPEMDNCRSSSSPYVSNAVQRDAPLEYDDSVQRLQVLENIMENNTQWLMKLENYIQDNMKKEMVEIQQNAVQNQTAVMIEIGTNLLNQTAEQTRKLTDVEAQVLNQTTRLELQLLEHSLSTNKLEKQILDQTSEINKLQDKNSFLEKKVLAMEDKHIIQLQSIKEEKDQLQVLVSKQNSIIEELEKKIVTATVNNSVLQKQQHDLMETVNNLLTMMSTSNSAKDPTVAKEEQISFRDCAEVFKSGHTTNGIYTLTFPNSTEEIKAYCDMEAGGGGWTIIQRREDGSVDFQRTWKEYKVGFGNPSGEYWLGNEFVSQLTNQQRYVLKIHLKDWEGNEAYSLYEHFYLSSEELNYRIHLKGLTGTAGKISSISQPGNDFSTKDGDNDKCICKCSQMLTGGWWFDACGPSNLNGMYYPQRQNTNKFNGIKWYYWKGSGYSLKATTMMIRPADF
# measurement-notes: SPR
Primed or numbered codes have the meaning given here. Where no end group is shown, it is not given here. [ ]: non-standard residue; d: D form. Fc(3) = Fc: non-antigen-binding fragment of an antibody from proteolytic digestion of a whole antibody (vehicle); Fc(4) = non-antigen-binding fragment of an antibody (from proteolytic digestion of a whole antibody); Fc = immunoglobulin Fc domain fused to the peptide (peptibody); Fc″ = Fc domain of the peptibody fusion
measured-attribute: Kd (nM)

Below are worked cases with known answers.
| binder | Kd [nM] |
| --- | --- |
| MGAQHTFQPLDELEETLYYQWLYDQLLEGGGGG-{Fc″} [L1-21 (N)] | 0.24 |
| M[Fc(4)]GGGGGAQPIRQEECDWDPWTCEHMWEVLE (not fully specified; cysteine pairing not given here) [Con4-44 (C)] | 0.21 |

I: M[Fc]GGGGGAQQEECEWDPWTCEHMLE (not fully specified (bridges); printed as M-Fc-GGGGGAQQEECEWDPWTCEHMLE; cysteine pairing not given here; also: Fc fusion domain at position 2) [Con4 (C)]
II: MGAQTNFMPMDDLEQRLYEQFILQQGLEGGGGG-Fc [L1-7 (N)]
III: MGAQQKFQPLDELEQTLYEQFMLQQALEGGGGG[Fc(3)] [L1-10 (N)]
Task: Order the records, beginning with the lowest Kd and ending with the highest. Rank them, then answer with their labels in that order.
Output: II, I, III
